# Tested on: SNRK;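 further: KINOMEscan kinase panel screen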
# TEST SETTINGS: concentration: 1 μM,replicates: in singlicate; n = 1
PARAMETER: %Inh (%)
Numeric only. Scale: %

Guide cases for %Inh, answers given:
Nc1nc(Nc2ccccc2)cc(-c2ccc3c(N)n[nH]c3c2)n1; 0
C[C@@H]1CCN(C(=O)CC#N)C[C@@H]1N(C)c1ncnc2[nH]ccc12; 15
CC(C)N1C(=O)Cc2cc(Nc3ncc(C(F)(F)F)c(NCc4cccc(S(C)(=O)=O)c4)n3)ccc21; 13
Cc1n[nH]c2ccc(-c3cc(OC[C@@H](N)Cc4ccccc4)cnc3-c3ccoc3)cc12.O=C(O)C(F)(F)F.O=C(O)C(F)(F)F; 0
COc1ccc(C[C@@H](CN)NC(=O)c2cc(Br)c(-c3ccnc4[nH]ccc34)s2)cc1.Cl.Cl; 0

Input: # lookup: %Inh of Cl.Oc1cc(-c2nc(-c3ccccc3)[nH]c2-c2ccncc2)ccc1Cl
Output: 0

Input: What do you have for Cl.Cl.Nc1nc(-c2ccc3c(N)n[nH]c3c2)cc(N2CCCC(NC(=O)c3ccccc3)C2)n1 (centres unmarked) ?
Output: 0

Input: What do you have for Cc1cc2cn[nH]c2cc1-c1cccc2c(N)c(C(N)=O)nnc12 ?
Output: 11

Every entry's value here was drawn from paper PMC5540273.
